Endpoint summary: Ki, system: Insulin-like growth factor 1 receptor (Homo sapiens), multiple sources combined.
result-type: Ki (nM)

Look over these answered cases.
>  <compound>
COc1ccc2c(Oc3ccc(NC(=O)c4c(C5CCOC5)n(C)n(-c5ccccc5)c4=O)cc3F)ccnc2c1 (racemic)

>  <Ki (nM)>
250

$$$$
>  <compound>
COc1ccc2c(Oc3ccc(NC(=O)c4c(C)n(CC(C)O)n(-c5ccccc5)c4=O)nc3)ccnc2c1 (stereo not given)

>  <Ki (nM)>
1290

$$$$
>  <compound>
COc1ccc2c(Oc3ccc(NC(=O)c4c(C)n(CC(C)C)n(-c5ccccc5)c4=O)cc3F)ccnc2c1

>  <Ki (nM)>
915

$$$$
>  <compound>
COc1ccc2c(Oc3ccc(NC(=O)c4c(-c5cccnc5)n(C)n(-c5ccccc5)c4=O)nc3)ccnc2c1

>  <Ki (nM)>
27

$$$$
>  <compound>
Clc1cccc(CNc2ccnc3oc4ccccc4c23)c1

>  <Ki (nM)>
580

$$$$
>  <compound>
CC[C@H](O)Cn1c(C)c(C(=O)Nc2ccc(Oc3ccnc4cc(OC)ccc34)c(F)c2)c(=O)n1-c1ccccc1

>  <Ki (nM)>
575

$$$$
>  <compound>
COc1cc2nccc(Oc3ccc(NC(=O)c4c(C)n(C)n(-c5ccccc5)c4=O)c(Cl)c3)c2cc1OC

>  <Ki (nM)>
26.5

$$$$

(I) COc1ccc2c(Oc3ccc(NC(=O)c4c(C)n(CCO)n(-c5ccccc5)c4=O)cc3F)ccnc2c1
(II) COc1cc(N2CCC(N3CCN(S(C)(=O)=O)CC3)CC2)ccc1Nc1nccc(-c2c(-c3cccc(C(=O)Nc4c(F)cccc4F)c3)nc3ccccn23)n1
Q: Between the entries labelled I and II , which has a larger Ki value on record? Kindly state the label of the option you pick.
Result: I
